Entries annotated with measured growth
system: BT-549 breast; experiment: NCI-60 one-dose screen, 48 h (100 = growth as untreated, 0 = no growth, -100 = all killed); settings: 10 µM unless noted
About 83,000 compounds went through this panel and 20% of them were active in at least one assay; those are over-represented in the sample as a whole. Activity calls are given as the source filed them. How the source made its calls: active means growth percent below 10; inactive means the rest.

Example molecules with recorded growth:
O=C1C2C(c3cccs3)C=C(c3ccc(Cl)cc3)N2C(=S)N1c1ccccc1 (configuration not stated) = 92.4% (inactive)
CCN(CC)CCN1C(=O)c2c(c(C)c3c(oc4cc(OC)ccc43)c2C)C1=O = 98.2% (inactive)
C#CC(F)(F)[C@]1(O)CCC2C3CCC4=CC(=O)CCC4=C3[C@@H](c3ccc(N(C)C)cc3)C[C@@]21C (some centres not stated) = 88.7% (inactive)
CC1(C)CC[C@]2(CO)CC[C@]3(C)[C@H](CC[C@@H]4[C@@]5(C)CC[C@H](O)C(C)(C)[C@@H]5CC[C@]43C)[C@H]2[C@H]1O = 96.2% (inactive)
CCOC(=O)c1c(C)n2c(=O)cc(C)c3c(OC(C)=O)c(OC(C)=O)cc1c32 = 80.3% (inactive)
CSc1nc(N)c2c(n1)NC(c1ccccc1)C1CCc3ccccc3C1=N2 (configuration not stated) = 73.9% (inactive)
CCOC(=O)c1c(C)c2c(n1Cc1ccccc1)CSc1cc(C#N)c(=O)[nH]c1-2 = 46% [100 µM] (inactive)
O=C(OCC(O)C(=O)NC12CC3CC(CC(C3)C1)C2)c1cccc(Br)c1 (configuration not stated) = 115% (inactive)
Clc1ccc(C2=Nn3c(nnc3-c3cc(Cl)cc(Cl)c3Cl)SC2)cc1 = 31.4% (inactive)
C=C(C)[C@@H]1CCC[C@]2(C(=O)OC)CC[C@]3(C)[C@@H](CC[C@@H]4[C@@]5(C)CCCNC(C)(C)[C@@H]5CC[C@]43C)[C@@H]12 = 93.9% (inactive)

Exercise: Quick one: growth for `COC(=O)c1sc(-c2ccc(C)cc2)cc1O` ?
Key: 107% (inactive)

Exercise: What do you have for `C=C(C)[C@@H]1CC[C@]2(C(=O)NC(C)=O)CC[C@]3(C)[C@H](CC[C@@H]4[C@@]5(C)CCCNC(C)(C)[C@@H]5CC[C@]43C)[C@@H]12` ?
Key: 63.1% (inactive)

Exercise: What do you have for C=C(CNCCO)[C@@H]1CC[C@]2(CO)CC[C@]3(C)[C@H](CC[C@@H]4[C@@]5(C)CCC(NCCO)C(C)(C)[C@@H]5CC[C@]43C)[C@@H]12 (some centres not stated) ?
Key: 78.9% (inactive)

Exercise: What do you have for `N#C/C(=N\Nc1ccccc1)C(=O)Nc1cc(-c2ccccc2)nn1-c1ccccc1` ?
Key: 16.2% (inactive)

Exercise: What do you have for `COc1cc(NC(=O)c2cncnc2Nc2ccc3c(ccn3Cc3cccc(F)c3)c2)cc(OC)c1` ?
Key: 68.1% (inactive)

Exercise: What do you have for `CC(C)CCc1nc2ccc(NCc3ccc(OCCN4CCC(C)CC4)cc3)cc2[nH]1` ?
Key: 77.1% (inactive)

Exercise: What do you have for `C=CCn1c(SCC(=O)Nc2ccc(C(=O)/C=C/c3ccc(Cl)cc3)cc2)nnc1-c1ccc(Cl)c(Cl)c1` ?
Key: 78% (inactive)
